# Tested on: RPMI-8226 leukemia
# PROTOCOL_DESCRIPTION: NCI-60 one-dose screen, 48 h (100 = growth as untreated, 0 = no growth, -100 = all killed)
# CONDITION_DETAILS: 10 µM
About 83,000 compounds went through this panel and 20% of them were active in at least one assay; those are over-represented in the sample as a whole. Activity calls are given as the source filed them. Rule for the calls: active = growth percent below 10; inactive = the rest.
MEASURE: growth

Worked set:
1) CNc1ccc(CSc2ccc(C)cc2)cc1 ... 20.8% (inactive)
2) Cc1ccc(NC(=O)Nc2cccnc2)cc1NC(=O)Nc1cccnc1 ... 42.9% (inactive)
3) Cc1cc(C)c(NC(=O)c2sc3nc4c(cc3c2N)C(=O)CCC4)c(C)c1 ... 31.8% (inactive)
4) Cc1cc2ccccc2nc1-c1ccccc1F ... 101% (inactive)
5) C#Cc1ccc(-n2c(/C=C/c3ccc4ccccc4c3)nc3ncccc3c2=O)cc1 ... -8.86% (active)
6) C/C(N)=C(\C#N)C(=O)c1ccccc1 ... 99.2% (inactive)
7) CS(=O)(=O)Nc1ccc(Nc2c3ccccc3nc3cc(N)ccc23)cc1 ... 21.6% (inactive)
8) Cc1cc(Nc2ccc(Cl)cc2)nc(NCCCNc2ccnc3cc(Cl)ccc23)n1 ... -59.8% (active)

Could you tell me growth for each of these molecules? They are listed below.
1. COc1ccc(N2C(=O)C3c4[nH]c5ccc(OCc6ccccc6)cc5c4C4CCC(C(C)C)CC4C3C2=O)cc1 (stereo not drawn)
2. COc1cc(Cl)cc(-c2nn(-c3cccc(NC(=O)c4ccc(Cl)c(Cl)c4)c3)cc2-c2ccncc2)c1
3. COc1ccc(-c2nn(-c3cccc(NC(=O)Nc4cc(C(F)(F)F)cc(C(F)(F)F)c4)c3)cc2-c2ccncc2)cc1Cl

result:
["86.9% (inactive)", "46% (inactive)", "-25.1% (active)"]

Could you tell me growth for each of these molecules? They are listed below.
1. c1ccc(CSc2nnc3c4c5c(sc4nc(-c4cccnc4)n23)CCCCCC5)cc1
2. CCN(CCCCCCCCCCN1CC(=O)N(CCCCCCCCCCN(CC)Cc2ccccc2OC)CC1=O)Cc1ccccc1OC
3. O=C(Nc1nc2ccc(F)cc2s1)c1cc(-c2ccc(F)cc2)n2nc(-c3ccccc3)cc2n1
4. N=c1c2c(-c3ccccc3)c(-c3ccccc3)n(Cc3ccccc3)c2ncn1CCCO
5. O=[N+]([O-])c1cccc(-c2ncc(-c3ccc(Cl)cc3Cl)[nH]2)c1
6. COc1ccc2c(c1)sc1nc(-c3ccccc3)c(-c3ccsc3)n12

result:
20.1% (inactive)
-70.2% (active)
97.7% (inactive)
18.7% (inactive)
-8.35% (active)
15.2% (inactive)

---

# Tested on: BT-549 breast
# PROTOCOL_DESCRIPTION: NCI-60 one-dose screen, 48 h (100 = growth as untreated, 0 = no growth, -100 = all killed)
# CONDITION_DETAILS: 10 µM
# Description: Growth inhibition of the BT-549 human tumor cell line is measured as a screen for anti-cancer activity. Cells are grown in 96 well plates and exposed to the test compound for 48 hours. Compounds are tested at a single concentration, which is 10^-5 M for most compounds. The reported endpoint is percent growth (GI% or GIPRCNT), where numbers from 0 - 100% represent growth inhibition, and numbers from -100% - 0 represent cell death. For example, a value of 40 represents 60% growth inhibition. […]
About 83,000 compounds went through this panel and 20% of them were active in at least one assay; those are over-represented in the sample as a whole.
For each record, write down the corresponding growth.
Give bare numbers, in %.

Could you tell me growth for each of these compounds? They are listed below.
1. Cc1cc(C)c(NC(=O)c2sc3nc4c(cc3c2N)C(=O)CCC4)c(C)c1
2. Cc1cccc2c(NCCN(C)C)c3cccc(C(=O)NCCN(C)C)c3nc12
3. Nc1ncnc2[nH]c(=O)[nH]c12
4. COc1cc(-c2nc(-c3nnc(-c4ccc(F)c(Cl)c4)o3)c3ccccn23)cc(OC)c1OC
5. COc1ccc(C2=Nc3c(C)nn(-c4ccccc4)c3NC(c3ccc(Oc4ccnc5cc(Cl)ccc45)c(OC)c3)C2)cc1 (stereo not given)
6. COc1cc(Cl)cc(-c2nn(-c3cccc(NC(=O)c4ccc(Cl)c(Cl)c4)c3)cc2-c2ccncc2)c1

result:
1. 56.7
2. 18.2
3. 122
4. 2.74
5. 93
6. 85.2

Could you tell me growth for each of these compounds? They are listed below.
1. CCN(CC)CCNC(=O)c1ccc(NC(C)=O)cc1
2. C=C(C(=O)c1ccccc1)C(NC(C)(C)C)c1ccccc1 (stereo not given)
3. CC(C)(C)NC/C(=C\c1ccccc1)C(=O)c1ccccc1
4. Cc1ccc(N=Nc2c(N)nc(N)[nH]c2=O)cc1C
5. COc1ccc(OC)c(/C=C/c2nnc(Nc3ccc(Cl)cc3)o2)c1
6. CCOC(=O)C(CSC(c1ccccc1)(c1ccccc1)c1ccccc1)NC(=O)C(CSC(c1ccccc1)(c1ccccc1)c1ccccc1)NC(c1ccccc1)(c1ccccc1)c1ccccc1 (stereo not given)
7. COc1cc(-c2nc(-c3nnc(-c4ccccc4Cl)o3)c3ccccn23)cc(OC)c1OC

result:
[106, 34.8, 15.8, 98.5, 97.4, 109, 89.5]
